The reported measurements were obtained from patent US5968940A.

# Tested on: HL-60 cells
# METHOD DESCRIPTION: MTT assay, inhibition of HL-60 cells
# Format: cell-based, human
# RECORDED CONDITIONS: HL-60, Table 15
MEASUREMENT NAME: EC50 (µM)

compound="CC1=C(/C=C/C(C)=C/C=C/C(C)=C/C(=O)Oc2ccc3c(C)cc(=O)oc3c2)C(C)(C)CCC1 [Compound I-32, 4-methyl-7-retinoyloxy-coumarin]" measurement_name=EC50 experimental_result=11
